Listed binders paired with reported binding score
STUDY_TARGET: T1, Bdf1 bromodomain 2 (GST-tagged, WT) (Saccharomyces cerevisiae (strain ATCC …, UniProt P35817))
T1 chain: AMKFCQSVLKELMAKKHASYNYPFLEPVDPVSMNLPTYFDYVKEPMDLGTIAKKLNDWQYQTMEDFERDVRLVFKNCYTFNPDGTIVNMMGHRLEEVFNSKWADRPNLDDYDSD
ASSAY_TEXT: histone peptide array probed with recombinant GST-bromodomain, signal normalised to myc peptide control
Non-standard residues stand in square brackets, D forms with d. No end group written: not given here. Arg(Me2a) = CN(C)C(=N)NCCC[C@H](N)C(=O)O; Arg(Me2s) = CN=C(NC)NCCC[C@H](N)C(=O)O; Lys(Me2) = CN(C)CCCC[C@H](N)C(=O)O
Keep it simple and answer with nothing but the number.

BINDER: PRKQLATKAA[Arg(Me2a)]KSAPATGG [H3 16-35]
binding score: 0
//
BINDER: A[Arg(Me2s)]T[Lys(Me2)]QTA[Arg(Me2s)][Lys(Me2)]STGGKAPRKQ
binding score: 0

Now turn to the next binder.
Query ARTKQTARKSTGGKAPRKQ (A Rme2s T Kac Q T A Rme2s Kme2 S T G G K A P R K Q) yields binding score of 0

Data provenance is paper PMC5261807.
